// data source = the Kinase Knowledgebase extract (Sharma et al. 2016)

- tgt: CDK2 (UniProt P24941)
property: IC50

query: Give the reported IC50 for CCOC(=O)c1cnc2c(c1)/C(=C\Nc1ccc3ncccc3c1)C(=O)N2 (system: CDK2 (UniProt P24941)).
result: 100 to 1000 nM

query: Give the reported IC50 for NS(=O)(=O)c1ccc(N/C=C2\C(=O)Nc3ccncc32)cc1 (system: CDK2 (UniProt P24941)).
result: 10 to 100 nM

query: Give the reported IC50 for O=C1Nc2nc(Cl)ccc2/C1=C/Nc1ccc2cn[nH]c2c1 (system: CDK2 (UniProt P24941)).
result: 100 to 1000 nM

query: Give the reported IC50 for NS(=O)(=O)c1ccc(N/C=C2\C(=O)Nc3ncc(-c4ccccc4)cc32)cc1 (system: CDK2 (UniProt P24941)).
result: 1000 to 10000 nM

query: Give the reported IC50 for NS(=O)(=O)c1ccc(N/C=C2\C(=O)Nc3ncc(Br)cc32)cc1 (system: CDK2 (UniProt P24941)).
result: 10 to 100 nM

query: Give the reported IC50 for NS(=O)(=O)c1ccc(N/C=C2\C(=O)Nc3ncccc32)cc1 (system: CDK2 (UniProt P24941)).
result: 100 to 1000 nM
